# Test system: Plasmodium falciparum
# assay.info: Antimalarial activity against Plasmodium falciparum 3D7A infected erythrocytes by [3H]hypoxanthine uptake
# Type: functional, organism-based
recorded.metric: pIC50
Answers are plain numbers, as −log10 of the molar value.

Dear reader, for each entry below, please note its pIC50.
1. Cc1[nH]c(C)c(-c2cccc(Oc3ccc(OC(F)(F)F)cc3)c2)c(=O)c1Br
2. Cc1cc(=O)c(-c2ccc(Oc3ccc(OC(F)(F)F)cc3)cc2)c(C)[nH]1
3. Cc1[nH]cc(-c2ccc(Oc3ccc(OC(F)(F)F)cc3)cc2)c(=O)c1Br

Result block:
1: 8.15; 2: 6.80; 3: 6.70

Query block: Read the entry `Cc1[nH]c(C)c(C(F)(F)F)c(=O)c1-c1ccc(Oc2ccc(OC(F)(F)F)cc2)cc1` and write its reported pIC50.
Result block: 7.52

FYI, the data here is from ChEMBL document CHEMBL1150240.
